Origin of the recorded values: patent US20220195068A1

Measured fold over the background MFI signal by item
biological target: T1, human PSMA (Prostate Specific Membrane Antigen, Glutamate Carboxypeptidase II) on cells (human, UniProt Q04609 1-750); assay: flow cytometry on LNCaP cells
T1 construct: whole, on cells; the cell line is named under assay; also called cell surface expressed PSMA; FOLH1
T1 sequence (Q04609 whole entry): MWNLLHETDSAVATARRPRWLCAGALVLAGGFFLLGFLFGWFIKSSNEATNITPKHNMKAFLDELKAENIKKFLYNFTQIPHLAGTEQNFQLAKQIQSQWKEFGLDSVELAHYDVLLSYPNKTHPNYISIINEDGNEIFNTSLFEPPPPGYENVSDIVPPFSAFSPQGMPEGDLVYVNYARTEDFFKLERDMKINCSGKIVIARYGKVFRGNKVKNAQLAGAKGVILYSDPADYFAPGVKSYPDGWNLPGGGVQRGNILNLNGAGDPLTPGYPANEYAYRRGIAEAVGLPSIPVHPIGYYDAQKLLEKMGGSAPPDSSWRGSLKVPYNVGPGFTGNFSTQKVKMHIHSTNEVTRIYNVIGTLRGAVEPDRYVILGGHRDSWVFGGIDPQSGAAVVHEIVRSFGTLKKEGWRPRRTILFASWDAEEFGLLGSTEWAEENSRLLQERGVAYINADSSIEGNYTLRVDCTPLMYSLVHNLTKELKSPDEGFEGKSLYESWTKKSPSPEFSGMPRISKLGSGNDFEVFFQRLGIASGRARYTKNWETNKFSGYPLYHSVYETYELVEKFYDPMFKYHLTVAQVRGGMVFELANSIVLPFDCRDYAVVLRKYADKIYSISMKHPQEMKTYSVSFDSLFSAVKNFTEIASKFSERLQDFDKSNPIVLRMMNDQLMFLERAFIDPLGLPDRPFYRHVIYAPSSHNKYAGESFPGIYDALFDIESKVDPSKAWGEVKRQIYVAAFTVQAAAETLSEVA
experimentalEndpoint: fold over the background MFI signal (fold over background)

>>> recordedvalue("anti-PSMA heavy chain antibody clone ID 345436 (antibody, V domains shown, heavy chain-only antibody (UniAb), no light chain) VH: QVQLVESGGGVVQPGRSLRLSCAASGFSFSRYGMHWVRQAPGKGLEGVAVIWYDGSNKYYADSVKGRFTISRDNSKNTLYLQMNSLRAEDTAVYYCAREPRIGYYYESSGYYSLDYRGQGTLVTVSS")
87
>>> recordedvalue("anti-PSMA heavy chain antibody clone ID 345444 (antibody, V domains shown, heavy chain-only antibody (UniAb), no light chain) VH: QVQLVESGGGVVQPGRSLRLSCAASGFTFSSYGMHWVRQAPGKGLEGVAVIWYDGSNRYYADSVKGRFTISRDNSKNTLYLQMNSLRAEDTAVYYCAREPRIGYYYESSGYYSLDYRGQGTLVTVSS")
23
